Each entry below carries its reported GI50.
- System: HCT-116 colon
- ASSAY_REMARKS: NCI tumour cell line growth inhibition, 48 h
QUANTITY: GI50

- COc1ccccc1OCC(=O)Nc1sc2c(c1C(N)=O)CCC2: > 100 µM
- O=[N+]([O-])c1ccc(Br)c([N+](=O)[O-])c1: 2.09 µM
- Cn1cncc1[C@@](N)(c1ccc(Cl)cc1)c1ccc2c(c1)c(-c1cccc(Cl)c1)cc(=O)n2C: 1.48 µM
- COc1cc(C(=O)c2ccc3c(c2)OCO3)cc(OC)c1OC: 2.08 µM

----------
- System: NCI-H23 lung
- ASSAY_REMARKS: NCI tumour cell line growth inhibition, 48 h
QUANTITY: GI50

• C[n+]1c(/C=C\c2ccc(Cl)cc2)ccc2ccccc21 = 31 µM
• CC(=O)N1N=C2/C(=C/c3ccccc3)CC(C)CC2C1c1ccccc1 (stereo not drawn) = 14.4 µM
• Cc1cc2c(cc1Cl)SC1=CC(=O)N(c3ccccc3)C1=NS2(=O)=O = > 100 µM
• O=S(=O)(O)O.[NH-]C1CCCCC1[NH-].[Pt+2] (stereo not drawn) = > 100 µM
• CC(C)=CCC[C@H](C)[C@@H]1CC[C@]2(C)C3CC[C@]4(OC4(C)C)C(CCCO)[C@]3(C)CC[C@@]12C (stereo partly drawn) = 18.7 µM
• CCC[CH2][Sn]1([CH2]CCC)[O]C(=O)c2cc(I)cc(I)c2[O]1 = 1.18 µM
• Cn1ccnc1C(=O)/C=C/c1ccc(C(=O)Nc2ccc(Cl)cc2)cc1 = 1.25 µM
• Cn1cc(-c2nc(-c3c[nH]c4ncccc34)cs2)c2cc(F)ccc21 = 2.4 µM
• COc1cc(-c2nc(Nc3nc4ccccc4[nH]3)nc(N)c2C#N)cc(OC)c1OC = 12.2 µM
• O=C1NN(c2ccc(C(=O)O)cc2)C(=O)/C1=C\c1ccc([N+](=O)[O-])o1 = 75.1 µM
• CCOc1cccc(/C=N/NC(=O)c2ccc(Nc3ccnc(C(F)(F)F)c3)cc2)c1O = 2.26 µM
• O=[N+]([O-])c1ccc(Br)c([N+](=O)[O-])c1 = 1.82 µM
• COC(=O)Nc1nc2ccc(Oc3ccc(NC(=O)Nc4cccc(C(=O)O)c4)cc3)cc2[nH]1 = 9.64 µM
• CC[C@@H](C(=O)[C@@H](C)[C@@H](O)[C@H](C)[C@@H]1O[C@@H]([C@@H](CC)C(=O)O)CC[C@@H]1C)C1O[C@]2(C=CC(=O)[C@]3(CC[C@@](C)([C@H]4CC[C@](O)(CC)[C@H](C)O4)O3)O2)[C@H](C)C[C@@H]1C (stereo partly drawn) = 0.0979 µM
• C[C@@H]1CN(C(=O)c2ccc(NC(=O)c3cc(O[C@H](C)c4c(Cl)ccc(F)c4Cl)c(N)nn3)cc2)C[C@H](C)N1 = 3.17 µM
• O=C(Nc1ccccc1O)c1cccc(NC2=C(Cl)C(=O)N(Cc3ccccc3)C2=O)c1 = 3.44 µM
• CN(C)c1ccc(N2Cc3ccccc3OC3=C2C(=O)c2c(O)ccc(O)c2C3=O)cn1 = 0.277 µM
• N#C/C(=C\c1ccc(-c2ccc(Cl)cc2)o1)C(=O)Nc1ncc(Cc2ccc(Cl)cc2)s1 = 1.82 µM
